IC50 values, listed per item
TARGET_OR_TEST_SYSTEM: Epidermal growth factor receptor (Homo sapiens)
Sequence (P00533 whole entry, the tested form may be a part): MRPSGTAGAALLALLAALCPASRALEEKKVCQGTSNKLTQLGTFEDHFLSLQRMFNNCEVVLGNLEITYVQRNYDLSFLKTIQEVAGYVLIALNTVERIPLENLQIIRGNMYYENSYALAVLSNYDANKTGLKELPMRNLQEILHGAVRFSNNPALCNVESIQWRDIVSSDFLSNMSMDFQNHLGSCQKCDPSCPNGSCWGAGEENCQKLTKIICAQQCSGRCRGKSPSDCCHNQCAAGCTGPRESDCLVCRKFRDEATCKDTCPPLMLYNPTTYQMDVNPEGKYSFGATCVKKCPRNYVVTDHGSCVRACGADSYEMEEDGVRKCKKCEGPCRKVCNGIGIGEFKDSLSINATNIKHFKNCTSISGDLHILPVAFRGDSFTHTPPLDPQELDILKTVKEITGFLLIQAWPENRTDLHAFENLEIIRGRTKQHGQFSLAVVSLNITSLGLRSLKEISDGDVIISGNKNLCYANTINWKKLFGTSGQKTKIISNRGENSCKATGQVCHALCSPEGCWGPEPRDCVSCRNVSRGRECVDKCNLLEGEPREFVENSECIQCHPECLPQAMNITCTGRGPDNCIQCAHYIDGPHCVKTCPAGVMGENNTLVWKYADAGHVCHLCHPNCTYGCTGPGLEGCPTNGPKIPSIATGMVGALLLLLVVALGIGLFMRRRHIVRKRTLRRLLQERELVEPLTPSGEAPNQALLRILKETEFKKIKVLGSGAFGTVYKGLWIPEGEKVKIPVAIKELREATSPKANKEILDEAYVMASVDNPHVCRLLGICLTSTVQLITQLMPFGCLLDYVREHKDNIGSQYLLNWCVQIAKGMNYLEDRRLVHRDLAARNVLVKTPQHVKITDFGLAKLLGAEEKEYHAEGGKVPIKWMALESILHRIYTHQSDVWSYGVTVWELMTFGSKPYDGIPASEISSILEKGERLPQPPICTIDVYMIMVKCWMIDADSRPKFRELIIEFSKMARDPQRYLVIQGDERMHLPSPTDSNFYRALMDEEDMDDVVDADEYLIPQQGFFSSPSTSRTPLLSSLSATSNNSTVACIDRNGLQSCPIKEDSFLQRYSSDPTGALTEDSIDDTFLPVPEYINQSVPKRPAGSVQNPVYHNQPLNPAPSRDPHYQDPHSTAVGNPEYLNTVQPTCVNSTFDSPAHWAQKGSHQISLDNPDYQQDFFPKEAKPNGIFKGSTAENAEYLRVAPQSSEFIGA
PROTOCOL_DETAILS: Inhibition of recombinant human GST-tagged EGFR cytoplasmic domain (668 to 1210 residues) expressed in baculovirus by Z'-LYTE assay
Field: numeric (nM). Do not append units.

# example entries with known answers
{"SMILES_NOTATION": "COc1ccc(-c2cc3c(N[C@H](CCO)c4ccccc4)ncnc3o2)cc1", "REPORTED_RESULT": 4}
{"SMILES_NOTATION": "COc1ccc(-c2cc3c(NCc4ccccc4)ncnc3o2)cc1", "REPORTED_RESULT": 74}
{"SMILES_NOTATION": "COc1ccc(-c2cc3c(N[C@H](C)c4ccccc4F)ncnc3o2)cc1", "REPORTED_RESULT": 24}
{"SMILES_NOTATION": "c1ccc(CNc2ncnc3oc(-c4ccccc4)cc23)cc1", "REPORTED_RESULT": 93}
{"SMILES_NOTATION": "C[C@@H](Nc1ncnc2oc(-c3ccc(NCCN4CCCCC4)cc3)cc12)c1ccccc1", "REPORTED_RESULT": 0.6}

Prompt: Query for Epidermal growth factor receptor (Homo sapiens): what IC50 does the record show for C[C@@H](Nc1ncnc2oc(-c3ccc(O)cc3)cc12)c1ccccc1 ?
Completion: 1.5
